Assay: Therapeutic index; LD50 for ICR mice (Mus musculus)/ED50 against Plasmodium berghei NK65
Conditions: read-out: Ratio LD50/ED50
Assay readout: selectivity ratio
Answers are plain numbers.

O=C(C[C@@H]1NCCC[C@H]1O)Cn1cnc2ccccc2c1=O (single isomer, unassigned) [FEBRIFUGINE]; 17

IN: Reported selectivity ratio for O=C(C[C@H]1NCCC[C@@H]1O)Cn1cnc2ccsc2c1=O (relative stereo) : what is it?
OUT: 30

###

Task for the reader: assign each of the following molecules its reported LD50.
Experiment: Toxicity in po dosed ICR mouse
Format: organism-based
Settings: in vivo

Worked set:
O=C(C[C@@H]1NCCC[C@H]1O)Cn1cnc2ccccc2c1=O (single isomer, unassigned); 7.1 mg/kg
O=C(C[C@H]1NCCC[C@@H]1O)Cn1cnc2ccc(F)cc2c1=O (relative stereo); < 2.5 mg/kg
O=c1c2ccccc2ncn1CCC[C@H]1NCCC[C@@H]1O; > 320 mg/kg

Please examine the following record next.
IN: Reported LD50 for O=C(C[C@H]1NCCC[C@@H]1O)Cn1cnc2ccsc2c1=O (relative stereo) : what is it?
OUT: 88 mg/kg

Each recorded value in this set is attributed to ChEMBL document CHEMBL1138962.
